percent of parent listing for selected variants.
B1: FLAG-tagged FBXO44 FBA domain (FBXO44^FBA) [human] / RGS2^5–16 peptide (RGS2 degron, Met^5–Met^16) [not stated] (parent complex)
chain 1: FYFLRSLHRNLLHNPCAEEGFEFWSLDVNGGDEWKVEDLSRDQRKEFPNDQVKKYFVTSYYTCLKSQVVDLKAEGYWEELMDTTRPDIEVKDWFAARPDCGSKYQLCVQLLSSAHAPLGTFQPDPATIQQKSDAKWREVSHTFSNYPPGVRYIWFQHGGVDTHYWAGWYGPRVTNSSITIGP
chain 2: MFLAVQHDCRPM

Variants of: B1
ASSAY: peptide microarray (PEPperPRINT), α-FLAG fluorescence; three independent experiments with three technical replicates each; parent: 100; read off a plot

[ask] Please give the documented percent of parent of chain 2 MFLAVQHDCCPM [chain 2 R10C]
[reply] ~110 % Parent

[ask] Please give the documented percent of parent of chain 2 MFLAVQHDCAPM [chain 2 R10A]
[reply] ~72 % Parent

[ask] Please give the documented percent of parent of chain 2 MFLAVQHDCFPM [chain 2 R10F]
[reply] ~95 % Parent

[ask] Please give the documented percent of parent of chain 2 MFLAVQHDCTPM [chain 2 R10T]
[reply] ~80 % Parent

[ask] Please give the documented percent of parent of chain 2 MFLAVQHDCDPM [chain 2 R10D]
[reply] ~110 % Parent

[ask] Please give the documented percent of parent of chain 2 MFLAVQHDCYPM [chain 2 R10Y]
[reply] ~120 % Parent

[ask] Please give the documented percent of parent of chain 2 MFLAVQHDCIPM [chain 2 R10I]
[reply] ~78 % Parent

[ask] Please give the documented percent of parent of chain 2 MFLAVQHDCMPM [chain 2 R10M]
[reply] ~88 % Parent

[ask] Please give the documented percent of parent of chain 2 MFLAVQHDCKPM [chain 2 R10K]
[reply] ~80 % Parent

[ask] Please give the documented percent of parent of chain 2 MFLAVQHDCVPM [chain 2 R10V]
[reply] ~85 % Parent

[ask] Please give the documented percent of parent of chain 2 MFLAVQHDCHPM [chain 2 R10H]
[reply] ~75 % Parent

[ask] Please give the documented percent of parent of chain 2 MFLAVQHDCPPM [chain 2 R10P]
[reply] ~80 % Parent

[ask] Please give the documented percent of parent of chain 2 MFLAVQHDCQPM [chain 2 R10Q]
[reply] ~80 % Parent

[ask] Please give the documented percent of parent of chain 2 MFLAVQHDCSPM [chain 2 R10S]
[reply] ~85 % Parent
